molecular target: RecQ-like DNA helicase BLM (Homo sapiens); assay: qHTS for Inhibitors of Bloom's syndrome helicase (BLM): Helicase DNA unwinding fluorescent orthogonal confirmatory assay for SAR; settings: fluorescence, orthogonal confirmation; series mostly up to 55.6 µM
Inconclusive results are not listed. The source made the active and inactive calls. The call rests on the fitted dose curve; in most records, active means well fitted inhibition curve with a large enough effect; inconclusive means small, poorly fitted or top-dose-only effect; inactive means no such curve, though single readings can be large or run the other way.
Your answer must be one of the following: 1 (yes) = active, 0 (no) = inactive

Please review the following examples before continuing.
structure_smiles=O=C(Nc1ccc(-c2nc3ccccc3[nH]2)cc1)Nc1ccc2c(c1)CCCO2 group="0 (no)"
structure_smiles=O=C(Nc1ccc(F)c(C(F)(F)F)c1)Nc1nc(-c2ccncc2)cs1 group="0 (no)"
structure_smiles=CCOC(=O)c1cccc(NC(=O)Nc2nnc(-c3ccncc3)s2)c1 group="0 (no)"

Q: Test call for this compound, please: `O=C(Nc1cc(F)cc(F)c1)Nc1nnc(-c2ccncc2)s1`
Ans: 1 (yes)

Q: Same again, this time with `CN1CCN(c2nnc(NC(=O)Nc3ccc(Cl)c(Cl)c3)s2)CC1`
Ans: 0 (no)

Q: Same again, this time with `O=C(NCc1ccc(Cl)c(Cl)c1)Nc1nnc(-c2ccncc2)s1`
Ans: 1 (yes)

Reference for the values: PubChem BioAssay AID720555
